ASSAY METHOD TEXT: inhibitors of TNFa-induced VCAM1 expression, primary screen, imaging, HUVEC, TNFa stimulus, immunofluorescence (AID 802);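 also: 0% = TNF-stimulated DMSO wells and 100% = unstimulated control wells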
RECORDED CONDITIONS: HUVEC TNFa-induced VCAM-1 immunofluorescence, high-content imaging; at 2 µM; hits give high values
The whole screen tested about 95,000 compounds, of which about 460 (0.48%) were called active. This excerpt belongs to a sample that is enriched for actives.
Parameter inhibition: see the listing below.
Number only, in %; omit the unit.

Example entries and their recorded answers appear below.
>>> print(df.to_string())
                                   compound  unit_text  quantitative_readout
0  Cc1cc(NC(=O)CSc2nc(C(C)C)nc3sc4c(c23)CCC(C)C4)no1 (stereo unspecified)          %                  18.6
1        CC(C)NC(=O)CSc1nnc(COc2ccccc2Cl)o1          %                   6.7
2             S=c1nccc(-c2cc(Cl)sc2Cl)[nH]1          %                     2
3  O=c1[nH]c(CSc2ncc(-c3ccc(F)cc3)n2Cc2ccco2)nc2ccccc12          %                  -0.9
4  CC(=O)c1ccc(Oc2cc(C)nc(-n3nc(C)cc3C)n2)cc1          %                  75.8

*Q* Which value of inhibition has been reported for O=C(/C=C/Nc1ccccc1)c1cnc(-c2ccccc2)s1 in the records?
*A* -1.5

*Q* Which value of inhibition has been reported for CCC1(CC)NC(=O)N(CC(=O)OCC(=O)Nc2ccc(C(F)(F)F)cc2)C1=O in the records?
*A* 9.5

*Q* Which value of inhibition has been reported for Cc1ccc2c(c1)-c1c(ssc1=S)C(C)(C)N2C(=O)CN1C(=O)c2ccccc2C1=O in the records?
*A* -19.4

*Q* Which value of inhibition has been reported for Cc1ccoc1C(=O)Nc1cccc(Oc2ccccc2)c1 in the records?
*A* -7.5

*Q* Which value of inhibition has been reported for CC(C)(C)Cc1nnc(NC(=O)c2cc(-c3ccccc3)nc3ccccc23)s1 in the records?
*A* -0.7

*Q* Which value of inhibition has been reported for Cc1ccc(NC(=S)NC2CCCC2)cc1 in the records?
*A* -15

*Q* Which value of inhibition has been reported for Cc1cc(Oc2ccccc2)nc(N2CCOCC2)n1 in the records?
*A* 0.8

*Q* Which value of inhibition has been reported for C=CCOC(=O)C1=C(C)NC(C)=C(C(=O)OCC=C)C1c1cccs1 in the records?
*A* 3.8

*Q* Which value of inhibition has been reported for Nc1cc(=O)nc(SCc2ccccc2)n1Cc1ccco1 in the records?
*A* 95

###

Parameter inhibition: see the listing below.
ASSAY METHOD TEXT: inhibitors of TNFa-induced VCAM1 expression, primary screen, imaging, HUVEC, TNFa stimulus, immunofluorescence (AID 802);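 also: 0% = TNF-stimulated DMSO wells and 100% = unstimulated control wells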
RECORDED CONDITIONS: HUVEC TNFa-induced VCAM-1 immunofluorescence, high-content imaging; at 2 µM; hits give high values
Screen size: about 95,000 compounds; about 460 (0.48%) were called active. This excerpt belongs to a sample that is enriched for actives.
Number only, in %; omit the unit.

Example entries and their recorded answers appear below.
                                   compound  property_measured  quantitative_readout
0   CCCN(Cc1cc2cccc(C)c2[nH]c1=O)S(C)(=O)=O         inhibition                 -13.9
1             CC(=O)Nc1ccccc1OC(=O)N1CCOCC1         inhibition                 -16.3
2         CCOc1ccc(NC(=O)Nc2cc(C)ccc2OC)cc1         inhibition                  11.7
3  Cc1ccc(C2(C(F)(F)F)N=C3Sc4cc(C)cc(C)c4N3C(=O)N2)cc1 (stereo unspecified)         inhibition                   7.1
4  COc1cc2cc(CN(CCN3CCCC3)C(=O)Nc3ccccc3Cl)c(=O)[nH]c2cc1OC         inhibition                  28.3

*Q* Which value of inhibition has been reported for CCOC(=O)N1CCN(C(=O)COc2ccc(Br)cc2)CC1 in the records?
*A* -1.9

*Q* Which value of inhibition has been reported for CCn1c2ccccc2c2cc(NC(=O)C/C(C)=N/NC(=O)c3ccccc3N)ccc21 in the records?
*A* 1.3

*Q* Which value of inhibition has been reported for COc1cc(C(=O)N2CCN(C/C=C/c3ccccc3)CC2)cc(OC)c1C in the records?
*A* -10.4

*Q* Which value of inhibition has been reported for CCOC(=O)N1CCN(C(=O)CSc2ccc(Cl)cc2)CC1 in the records?
*A* -18.1

*Q* Which value of inhibition has been reported for O=C(NCCCN1CCOCC1)c1cnn2c(-c3ccccc3)cc(-c3ccccc3)nc12 in the records?
*A* 12

*Q* Which value of inhibition has been reported for CCOC(=O)N1CCN(C(=O)COc2ccc(Cl)cc2C)CC1 in the records?
*A* 92.1
